target: BRAFV600E (Homo sapiens, UniProt P15056, V600E); construct: purchased ABCAM ab204154; experiment: BRAFV600E enzyme activity test (ADP-Glo, MEK1K97R substrate); format: biochemical; settings: Inhibitory activities of compounds on BRAFV600E
Sequence (P15056 416-766 V600E limits assumed): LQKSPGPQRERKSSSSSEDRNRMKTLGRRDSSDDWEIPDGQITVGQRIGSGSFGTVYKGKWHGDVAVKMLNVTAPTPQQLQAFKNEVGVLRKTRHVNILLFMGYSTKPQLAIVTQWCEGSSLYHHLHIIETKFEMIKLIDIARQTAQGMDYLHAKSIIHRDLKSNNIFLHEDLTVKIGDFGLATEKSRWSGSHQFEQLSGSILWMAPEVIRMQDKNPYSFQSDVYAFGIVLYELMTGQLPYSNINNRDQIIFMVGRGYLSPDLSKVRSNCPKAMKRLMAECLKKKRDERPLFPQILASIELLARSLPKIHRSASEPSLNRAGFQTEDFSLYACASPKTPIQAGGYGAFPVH
METRIC: IC50

Known results for molecules:
SAMPLE_SMILES: CC(F)=C1CN(S(=O)(=O)Nc2ccc(F)c(Oc3ccc4ncn(CC(F)F)c(=O)c4c3)c2C#N)C1
TARGET_OR_TEST_SYSTEM: BRAFV600E (Homo sapiens, UniProt P15056, V600E)
IC50: ≤ 10 nM
--
SAMPLE_SMILES: CC=C1CN(S(=O)(=O)Nc2ccc(F)c(Oc3ccc4ncn(CCF)c(=O)c4c3)c2C#N)C1
TARGET_OR_TEST_SYSTEM: BRAFV600E (Homo sapiens, UniProt P15056, V600E)
IC50: ≤ 10 nM
--
SAMPLE_SMILES: CC=C1CN(S(=O)(=O)Nc2ccc(F)c(Oc3ccc4ncn(CC(F)F)c(=O)c4c3)c2C#N)C1
TARGET_OR_TEST_SYSTEM: BRAFV600E (Homo sapiens, UniProt P15056, V600E)
IC50: ≤ 10 nM

Proceed to the following item.
Query "C=C1CN(S(=O)(=O)Nc2ccc(F)c(Oc3ccc4ncn(CC(F)F)c(=O)c4c3)c2C#N)C1" yields IC50 of ≤ 10 nM
